# System: Klebsiella aerogenes DSM 30053
# protocol description: fold change of Histamine concentration vs plate DMSO controls (fold change (ratio)); higher = more amine produced, active = hit call of the paper (significant change in both replicates, either direction)
# measurement context: incubation time: 27 h, anaerobic, 37 °C
Counter-ions that a name gives are not always drawn.
measured attribute: fold change of Histamine concentration

| molecule | measured attribute | result |
| --- | --- | --- |
| CC#C[C@]1(O)CC[C@H]2[C@@H]3CCC4=CC(=O)CCC4=C3[C@@H](c3ccc(N(C)C)cc3)C[C@@]21C [Mifepristone] (20 µM) | fold change of Histamine concentration | 1.02 (inactive) |
| Cc1[nH]cnc1CN1CCc2c(c3ccccc3n2C)C1=O [Alosetron hydrochloride] (20 µM) | fold change of Histamine concentration | 0.979 (inactive) |
| CC1COc2ccccc2N1C(=O)C(Cl)Cl (stereo not given) (20 µM) | fold change of Histamine concentration | 1.02 (inactive) |
| CCOC(=O)O[C@]1(C(=O)COC(=O)CC)CC[C@H]2[C@@H]3CCC4=CC(=O)C=C[C@]4(C)[C@H]3[C@@H](O)C[C@@]21C [Prednicarbate] (20 µM) | fold change of Histamine concentration | 1.02 (inactive) |
| CNCCC(Oc1ccc(C(F)(F)F)cc1)c1ccccc1 (stereo not given) [Fluoxetine hydrochloride] (20 µM) | fold change of Histamine concentration | 0.972 (inactive) |
